Reference source for all entries: PubChem BioAssay (Tox21)

Target: Progesterone receptor (Homo sapiens)
Test: qHTS assay to identify small molecule antagonists of the progesterone receptor (PR) signaling pathway (AID 1346795); further: on the % scale 0 is the no-effect control and ±100 the full control effect
Details: PR-UAS-bla HEK293T, beta-lactamase FRET ratio, 16 h; series mostly up to 92.4 µM
Results filed as inconclusive are left out. Activity calls are given as the source filed them. The call rests on the fitted dose curve; in most records, active means well fitted inhibition curve with a large enough effect in the signal ratio in the repeat runs (not every such curve was filed as active); inconclusive means weak or mixed curves; inactive means flat fitted curve, though single readings scatter; the % refers to the signal ratio.
readout-label: activity change, negative = inhibition

CC(C)Cn1cnc2c(N)nc3ccccc3c21 ... 5.77% [at 18.9 µM] (inactive)
NC[C@H]1O[C@H](O[C@H]2[C@H](O[C@@H]3O[C@H](CO)[C@@H](O)[C@H]3O)C(O)[C@H](N)C[C@@H]2N)[C@H](N)[C@@H](O)[C@@H]1O (some centres undefined) ... 0.98% [at 8.39 µM] (inactive)
O=C(O)CN(CCN(CC(=O)O)CC(=O)O)CC(=O)O ... 7.88% [at 3.27 µM] (inactive)
C[C@@H](O)[C@H](N)C(=O)O ... 8.03% [at 18.9 µM] (inactive)

----------
Test: qHTS assay to identify small molecule antagonists of the sonic hedgehog signaling (Shh) pathway (AID 1259369); further: nearly all actives have a fitted effect of over 45% in size
Settings: NIH/3T3 Gli1-Luc reporter, Shh antagonist, luminescence 24 h; series mostly up to 92.4 µM
Results filed as inconclusive are left out. Calls of active or inactive are those of the source. Calls follow the shape of the full dose curve.
Outcome codes: active, inactive

O=c1oc2cc(O)ccc2c2oc3cc(O)ccc3c12 ... active
O=C1c2ccccc2C(=O)N1SC1CCCCC1 ... active
CC(=O)CC(=O)Nc1ccc(S(=O)(=O)O)cc1 ... inactive
COC1=C(OC)C(=O)C(CCCCCCCCCCO)=C(C)C1=O ... inactive
Cl[Si](Cl)(c1ccccc1)c1ccccc1 ... inactive
Cc1ccc(-c2ccccc2)cc1 ... inactive
COc1cccc2c1C(=O)c1c(O)c3c(c(O)c1C2=O)C[C@@](O)(C(C)=O)C[C@@H]3O[C@H]1C[C@H](N)[C@H](O)[C@H](C)O1 ... active
C/C=C/C=C/COC(=O)C(C)C ... active
CCOC(=O)Cn1cccc1-c1nc(-c2ccc(OC)cc2)c(-c2ccc(OC)cc2)s1 ... inactive
Cc1ccc(C(C)C)cc2c(C)ccc1-2 ... inactive
O=C1C(c2[nH]c3ccc(S(=O)(=O)O)cc3c2O)=Nc2ccc(S(=O)(=O)O)cc21 ... inactive

----------
Test: qHTS assay to identify small molecule antagonists of the glucocorticoid receptor (GR) signaling pathway - cell viability counter screen (AID 720693); further: nearly all actives have a fitted effect of over 55% in size
Conditions: GR-bla HeLa viability, CellTiter-Glo luminescence, 18 h, with 5 nM dexamethasone present; series mostly up to 58.5 µM
Records with an inconclusive call do not appear. The source made the active and inactive calls. The call rests on the fitted dose curve; in most records, active means well fitted cell-killing curve with a large enough effect in the repeat runs; inconclusive means weak or mixed curves, or effect the other way; inactive means no such curve, though single readings can be large or run the other way.
Possible outcomes: active, inactive

c1ccc(SSc2ccccc2)cc1 ... inactive
C[Si](Cl)(c1ccccc1)c1ccccc1 ... inactive
OC1CCCc2ccccc21 (stereo unspecified) ... inactive
Cc1ccc(O)c(O)c1 ... active
CC[C@H](C)COC(=O)/C=C/c1ccc(N=Cc2ccc(OC)cc2)cc1 ... inactive
C=C(C)C(=O)OCCCCCCCCCC ... inactive
CC1(C)CCC[C@]2(C)[C@H]3CCO[C@]3(C)CC[C@@H]12 ... inactive
CC1(C)CCC[C@]2(C)[C@H]3CC(=O)O[C@]3(C)CC[C@@H]12 ... inactive
CC1=Nc2ccccc2C1(C)C ... inactive
C#CC1(O)CC[C@H]2[C@@H]3CCC4=CCCC[C@@H]4[C@H]3CC[C@@]21C (stereo partly specified) ... inactive
Nc1ccc(C(=O)O)c(O)c1 ... inactive
OC[C@@H](O)[C@@H](O)CO ... inactive
CCC(C)[O-].CCC(C)[O-].CCOC(=O)/C=C(/C)[O-].[Al+3] ... inactive
Cc1c(C)c2c(c(C)c1O)CC[C@@](C)(CCC[C@H](C)CCC[C@H](C)CCCC(C)C)O2 ... inactive
NC(=S)NC(N)=S ... inactive
CCOc1ccc2ccccc2c1C(=O)N[C@@H]1C(=O)N2[C@@H]1SC(C)(C)[C@@H]2C(=O)O ... inactive
Clc1ccnc(Cl)n1 ... inactive
Oc1c(I)cc(Cl)c2cccnc12 ... inactive
CC(=O)OCC=C(C)C ... inactive
COc1cc2nc(N3CCN(C(=O)c4ccco4)CC3)nc(N)c2cc1OC ... inactive
Cc1nc2n(c(=O)c1CCN1CCC(c3noc4cc(F)ccc34)CC1)CCCC2 ... inactive
O=c1oc2cc(O)ccc2c2oc3cc(O)ccc3c12 ... inactive
Cc1c(C)c([N+](=O)[O-])c(C(C)(C)C)c([N+](=O)[O-])c1C ... inactive
CCCCCCC1CCCC(=O)O1 (stereo unspecified) ... inactive
C[C@H]1NCc2cc(-c3ccc4c(=O)c(C(=O)O)cn(C5CC5)c4c3OC(F)F)ccc21 ... inactive
CCCCCCCCCCCCOCCOCCOCCOCCOCCOCCOCCOCCOCCO ... active
